System: Nakaseomyces glabratus
Test: Antifungal activity against Candida glabrata 20/I after 24 hrs by broth microdilution method
Type: functional

| STRUCTURE SMILES STRING | TARGET OR SYSTEM | MIC |
| --- | --- | --- |
| O=[N+]([O-])c1cc(-n2nnnc2SCc2ccc(Cl)c(Cl)c2)cc([N+](=O)[O-])c1 | Nakaseomyces glabratus | > 500 µM |
| O=[N+]([O-])c1cc(-c2nnc(SCc3ccc(Br)cc3)o2)cc([N+](=O)[O-])c1 | Nakaseomyces glabratus | > 125 µM |
| O=[N+]([O-])c1cc(-n2nnnc2SCc2ccc(Cl)cc2)cc([N+](=O)[O-])c1 | Nakaseomyces glabratus | > 500 µM |
| O=[N+]([O-])c1cc(-c2nnc(SCc3ccc(Cl)c(Cl)c3)o2)cc([N+](=O)[O-])c1 | Nakaseomyces glabratus | > 125 µM |
